// Oxidation potential E^ox lookup, one value per entry
- ASSAY_NAME: Electrochemical oxidation potentials, cyclic voltammetry
- Type: physicochemical
- STUDY_CONDITIONS: Table 4; glassy carbon electrode, dry acetonitrile, vs Ag/Ag+, 0.1 M TBABF4; tested as perchlorates
Number only, in V; omit the unit.

See these solved cases before continuing.
1. CCCCCCCCCCCCOC(=O)C1=C(C[n+]2ccccc2)NC(C[n+]2ccccc2)=C(C(=O)OCCCCCCCCCCCC)C1c1ccccc1.[Br-].[Br-] | 1.58
2. O=C(OCCCCC(F)(F)C(F)(F)C(F)(F)C(F)(F)C(F)(F)C(F)(F)C(F)(F)C(F)(F)F)C1=C(C[n+]2ccccc2)NC(C[n+]2ccccc2)=C(C(=O)OCCCCC(F)(F)C(F)(F)C(F)(F)C(F)(F)C(F)(F)C(F)(F)C(F)(F)C(F)(F)F)C1c1ccccc1 | 1.69

Data point: CCCCCCCCCCCCCCCCOC(=O)/C=C(\N)C[N+](C)(C)CCCCCCCCCCCC ; Oxidation potential E^ox = 1.24

Data point: CCOC(=O)C1=C(C[n+]2ccccc2)NC(C[n+]2ccccc2)=C(C(=O)OCC)C1c1ccccc1.[Br-].[Br-] ; Oxidation potential E^ox = 1.57

Data point: CCCCCCCCCCCCOC(=O)C1=C(C[n+]2ccccc2)NC(C[n+]2ccccc2)=C(C(=O)OCCCCC(F)(F)C(F)(F)C(F)(F)C(F)(F)C(F)(F)C(F)(F)C(F)(F)C(F)(F)F)C1c1ccccc1 (centres unmarked) ; Oxidation potential E^ox = 1.70
